# ASSAYED TARGET: hCBS (GST-tagged CBS-413) (Homo sapiens)
# Construct: hCBS-413 (a C-terminal truncated hCBS 1–413)
# PROTOCOL DETAILS: surface plasmon resonance (BIAcore T200)
# TEST CONTEXT: 0.097–12.5 µM injected over hCBS-coated chip; read-out: KD (SPR)

{"MOLECULE": "Cn1nc(Cc2ccccc2)nc2c(=O)n(C)c(=O)nc1-2 [CH004]", "ASSAYED TARGET": "hCBS (GST-tagged CBS-413) (Homo sapiens)", "Kd, nM": 600}

----------
# System: HepG2 cells
# PROTOCOL DETAILS: colony formation (crystal violet)
# Assay type: cell-based, human
# TEST CONTEXT: 24 h treatment
pIC50: −log10 of the molar value.
PROPERTY LABEL: pIC50

{"STRUCTURE NOTATION": "Cn1nc(Cc2ccccc2)nc2c(=O)n(C)c(=O)nc1-2", "PROPERTY LABEL": "pIC50", "OBSERVED RESULT": "~5.10"}

----------
# System: 293T-EV cells
# PROTOCOL DETAILS: cell viability of stable HEK293T lines
# Format: cell-based
# TEST CONTEXT: Homo sapiens, HEK-293T, 24 h
PROPERTY LABEL: IC50 (µM)

{"STRUCTURE NOTATION": "Cn1nc(Cc2ccccc2)nc2c(=O)n(C)c(=O)nc1-2", "PROPERTY LABEL": "IC50", "U": "µM", "OBSERVED RESULT": 9.6}

----------
# ASSAYED TARGET: hCBS-413 (Homo sapiens)
# Construct: hCBS-413 (a C-terminal truncated hCBS 1–413); GST (N); made in house; host or cells: E. coli BL21
# PROTOCOL DETAILS: purified hCBS-413 enzyme assay (192-tandem-well plate, H2S detected with DTNB)
# Type: biochemical
# TEST CONTEXT: hCBS-413, 50 mM Hepes buffer pH 7.4 instead of Tris-HCl pH 8.6; read-out: IC50 on hCBS (Hepes; pH 7.4)

{"STRUCTURE NOTATION": "Cn1nc(Cc2ccccc2)nc2c(=O)n(C)c(=O)nc1-2", "ASSAYED TARGET": "hCBS-413 (Homo sapiens)", "IC50 (µM)": 1.1}

----------
# ASSAYED TARGET: hCBS-413 (Homo sapiens, UniProt P35520)
# Construct: hCBS-413 (a C-terminal truncated hCBS 1–413); GST (N); made in house; host or cells: E. coli BL21
# PROTOCOL DETAILS: purified hCBS-413 enzyme assay (192-tandem-well plate, H2S detected with DTNB)
# Assay type: biochemical
# TEST CONTEXT: 150 nM purified CBS, 4 mM Hcys, 4 mM Cys, 50 mM Tris-HCl pH 8.6 (Table S2); read-out: IC50 hCBS WT
PROPERTY LABEL: IC50 (nM)

{"STRUCTURE NOTATION": "Cn1nc(Cc2ccccc2)nc2c(=O)n(C)c(=O)nc1-2", "OBSERVED RESULT": 1200}

----------
# ASSAYED TARGET: hCBS S147A (Homo sapiens, UniProt P35520, S147A)
# Construct: hCBS-413 (a C-terminal truncated hCBS 1–413); GST (N)
# PROTOCOL DETAILS: purified hCBS mutant enzyme assay
# TEST CONTEXT: 150 nM CBS, 4 mM Hcys, 4 mM Cys, Tris-HCl pH 8.6

{"COMPOUND": "Cn1nc(Cc2ccccc2)nc2c(=O)n(C)c(=O)nc1-2 [CH004]", "IC50 / µM": 5.9}

----------
# System: H22 cells
# PROTOCOL DETAILS: cell viability (CellTiter 96 Aqueous One)
# Type: cell-based, mouse
# TEST CONTEXT: Mus musculus, H22, 24 h
pIC50: −log10 of the molar value.
PROPERTY LABEL: pIC50

{"MOLECULE": "Cn1nc(Cc2ccccc2)nc2c(=O)n(C)c(=O)nc1-2 [CH004]", "OBSERVED RESULT": 4.89}

----------
# Test system: H22 cells
# PROTOCOL DETAILS: cell viability (CellTiter 96 Aqueous One)
# Format: cell-based, mouse
# TEST CONTEXT: 24 h
pIC50: −log10 of the molar value.
PROPERTY LABEL: pIC50

{"MOLECULE": "Cn1nc(Cc2ccccc2)nc2c(=O)n(C)c(=O)nc1-2 [CH004]", "PROPERTY LABEL": "pIC50", "OBSERVED RESULT": "~4.89"}

----------
# ASSAYED TARGET: hCBS Q222A (Homo sapiens, UniProt P35520, Q222A)
# Construct: hCBS-413 (a C-terminal truncated hCBS 1–413); GST (N)
# Sequence (P35520 1-413 Q222A): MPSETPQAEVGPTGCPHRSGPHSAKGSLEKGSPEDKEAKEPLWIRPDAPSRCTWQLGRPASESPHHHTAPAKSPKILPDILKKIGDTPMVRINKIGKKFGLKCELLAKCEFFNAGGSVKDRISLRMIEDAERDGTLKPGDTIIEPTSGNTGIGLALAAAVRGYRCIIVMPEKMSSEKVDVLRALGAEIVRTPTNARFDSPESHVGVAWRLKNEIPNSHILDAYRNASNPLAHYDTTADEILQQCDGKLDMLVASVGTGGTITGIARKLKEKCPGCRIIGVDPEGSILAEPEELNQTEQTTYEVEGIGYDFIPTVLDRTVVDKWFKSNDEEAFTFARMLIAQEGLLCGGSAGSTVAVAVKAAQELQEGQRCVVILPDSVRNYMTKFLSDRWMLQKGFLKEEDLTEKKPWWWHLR
# PROTOCOL DETAILS: purified hCBS mutant enzyme assay
pIC50: −log10 of the molar value.

{"COMPOUND": "Cn1nc(Cc2ccccc2)nc2c(=O)n(C)c(=O)nc1-2 [CH004]", "ASSAYED TARGET": "hCBS Q222A (Homo sapiens, UniProt P35520, Q222A)", "pIC50": 4.56}

----------
# ASSAYED TARGET: hCBS T146A (Homo sapiens, UniProt P35520, T146A)
# Construct: hCBS-413 (a C-terminal truncated hCBS 1–413); GST (N)
# PROTOCOL DETAILS: purified hCBS mutant enzyme assay
# TEST CONTEXT: 2 µM CBS, 4 mM Hcys, 4 mM Cys, Tris-HCl pH 8.6
pIC50: −log10 of the molar value.
PROPERTY LABEL: pIC50

{"COMPOUND": "Cn1nc(Cc2ccccc2)nc2c(=O)n(C)c(=O)nc1-2 [CH004]", "OBSERVED RESULT": 5.30}
